Numbers sourced from the kinase profiling compilation of Christmann-Franck et al. (2016).

Biological target: INSR (human)
Experiment: radiometric filter-binding kinase assay, Kinase HotSpot
Details: compound 0.5 µM; ATP 10 µM
endpoint: residual activity (%)

> print(dat)
                           structure.smiles  assayed.target           endpoint  units.of.measure  obs.value
1  CC[n+]1c(/C=C/N(C)c2ccccc2)n(-c2ccccc2)c2ccc(-c3nc4ccccc4s3)cc21    INSR (human)  residual activity                 %         94
2       N#CC(C#N)=C(N)/C(C#N)=C/c1ccc(O)cc1    INSR (human)  residual activity                 %       94.2
3                 CC(=O)c1ccc(N2CCOCC2)cc1O    INSR (human)  residual activity                 %         94
4  Oc1cccc(-c2nc(N3CCOCC3)c3oc4ncccc4c3n2)c1    INSR (human)  residual activity                 %       98.6
5  O=C1NC(=O)c2c1c1c3ccccc3n3c1c1c2c2ccccc2n1C1CCC3O1    INSR (human)  residual activity                 %       17.2
6           CNc1cc2c(Nc3cccc(Br)c3)ncnc2cn1    INSR (human)  residual activity                 %        100

###

The following compounds are listed with their measured residual activity values.
Biological target: TAOK2 (human) (UniProt Q9UL54)
Sequence (Q9UL54 whole entry, looked up): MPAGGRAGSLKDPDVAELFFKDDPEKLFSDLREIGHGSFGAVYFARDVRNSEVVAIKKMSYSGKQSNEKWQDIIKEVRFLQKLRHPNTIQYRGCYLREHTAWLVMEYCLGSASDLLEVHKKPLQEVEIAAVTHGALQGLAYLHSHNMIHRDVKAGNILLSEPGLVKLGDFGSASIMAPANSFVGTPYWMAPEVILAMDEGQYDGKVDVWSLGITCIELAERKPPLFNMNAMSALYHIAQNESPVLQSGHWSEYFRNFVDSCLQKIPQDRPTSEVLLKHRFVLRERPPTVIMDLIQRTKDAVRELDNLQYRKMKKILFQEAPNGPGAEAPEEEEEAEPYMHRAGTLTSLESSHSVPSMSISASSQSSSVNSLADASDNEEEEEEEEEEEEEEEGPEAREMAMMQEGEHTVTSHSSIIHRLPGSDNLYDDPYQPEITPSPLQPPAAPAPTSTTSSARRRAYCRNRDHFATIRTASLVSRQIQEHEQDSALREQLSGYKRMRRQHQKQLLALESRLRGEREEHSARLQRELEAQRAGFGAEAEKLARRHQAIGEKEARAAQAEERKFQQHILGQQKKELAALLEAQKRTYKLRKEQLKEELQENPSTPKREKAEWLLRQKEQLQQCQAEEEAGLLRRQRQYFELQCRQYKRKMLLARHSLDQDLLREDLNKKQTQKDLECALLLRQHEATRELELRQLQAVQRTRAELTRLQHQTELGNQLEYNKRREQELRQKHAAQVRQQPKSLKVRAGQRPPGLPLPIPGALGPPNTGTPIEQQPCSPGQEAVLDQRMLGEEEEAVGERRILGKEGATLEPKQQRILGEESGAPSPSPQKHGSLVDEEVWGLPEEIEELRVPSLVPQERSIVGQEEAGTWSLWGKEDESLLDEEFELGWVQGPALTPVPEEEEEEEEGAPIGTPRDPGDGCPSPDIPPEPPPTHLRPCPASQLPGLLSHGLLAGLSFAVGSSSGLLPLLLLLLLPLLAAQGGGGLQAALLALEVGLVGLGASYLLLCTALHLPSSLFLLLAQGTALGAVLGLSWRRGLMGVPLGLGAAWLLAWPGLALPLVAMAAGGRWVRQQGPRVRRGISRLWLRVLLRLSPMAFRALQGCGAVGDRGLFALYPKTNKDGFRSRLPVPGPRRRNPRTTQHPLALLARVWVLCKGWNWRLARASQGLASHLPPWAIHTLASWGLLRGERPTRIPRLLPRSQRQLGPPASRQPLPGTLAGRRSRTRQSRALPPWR
Test: radiometric filter-binding kinase assay, Kinase HotSpot
Settings: compound 0.5 µM; ATP 10 µM
endpoint: residual activity (%)

compound	obs-value
CC(C)N(CCC(=O)c1ccc2ccccc2c1)Cc1ccccc1	96.1
O=S(=O)(c1cccc2cnccc12)N1CCCNCC1	87.3
Nc1ncnc2[nH]nc(Nc3ccc(F)cc3)c12	97.3
CCOC(=O)c1c(C)[nH]c(/C=C2\C(=O)Nc3ccccc32)c1C	105
CC(=O)c1ccc(N2CCOCC2)cc1O	107
O=C1NC(=O)/C(=C/c2ccc3c(c2)OC(F)(F)O3)S1	96.9
O=C1NC(=O)c2c1c1c3ccccc3n3c1c1c2c2ccccc2n1C1CCC3O1	57.4
CCCC(=O)Oc1ccc2[nH]c(C(=O)c3cc4ccccc4[nH]3)cc2c1	110
CCC(=O)Nc1ccc2ncnc(Nc3cccc(Br)c3)c2c1	91.4
Nc1ccc2ncnc(NCCc3ccc(Oc4ccccc4)cc3)c2c1	102
COc1ccc(COc2ccc(Cc3cnc(N)nc3N)cc2OC)cc1	94.7
CCN(CC)CCNC(=O)c1c(C)[nH]c(/C=C2\C(=O)Nc3ccc(F)cc32)c1C	90.3
c1ccc(-c2n[nH]c3c2oc2ccccc23)cc1	80.7
CNc1cc2c(Nc3cccc(Br)c3)ncnc2cn1	95.3
c1ccc(-c2n[nH]cc2-c2ccnc3ccccc23)nc1	96.8
Nc1ncnc2c1c(-c1ccc(Oc3ccccc3)cc1)cn2C1CCCC1	104
Cc1ccc(NC2=CC(=O)c3sc(C)nc3C2=O)cc1	96.6
O=C1Nc2ccc(Cl)cc2/C1=C/c1cc(Cl)c(O)c(Cl)c1	81.3
N#C/C(=C(/N)Sc1ccc(N)cc1)c1ccccc1C(F)(F)F	101
COc1cc2ncnc(Nc3cccc(Cl)c3)c2cc1OC	96.1
Oc1cccc(-c2nc(N3CCOCC3)c3oc4ncccc4c3n2)c1	92.2
CCN(CC)CCNC(=O)c1c(C)[nH]c(/C=C2\C(=O)Nc3ccc(Cl)cc32)c1C	72.6
Nc1cccc(-c2cc3c(Oc4cccc(O)c4)ncnc3[nH]2)c1	81.4
Cc1ccc(S(=O)(=O)/C=C/C#N)cc1	89.7
CNC(=O)c1cc(Oc2ccc(NC(=O)Nc3ccc(Cl)c(C(F)(F)F)c3)cc2)ccn1	36.9
N#CC(C#N)=C(N)/C(C#N)=C/c1ccc(O)cc1	97.3
CO[C@H]1CC2CC[C@@H](C)[C@@](O)(O2)C(=O)C(=O)N2CCCC[C@H]2C(=O)OC([C@H](C)C[C@@H]2CC[C@@H](O)[C@H](OC)C2)CC(=O)[C@H](C)/C=C(\C)[C@@H](O)[C@@H](OC)C(=O)[C@H](C)C[C@H](C)/C=C/C=C/C=C/1C (stereo partly specified)	97.6
O=C1NC(=O)C(c2cn(CCCn3ccnc3)c3ccccc23)=C1Nc1ccccc1	92.3
Cc1ccc(Nc2nccc(N(C)c3ccc4c(C)n(C)nc4c3)n2)cc1S(N)(=O)=O	26.8
CC#CC(=O)Nc1cc2c(Nc3ccc(F)c(Cl)c3)ncnc2cn1	106
Cc1[nH]c(/C=C2\C(=O)Nc3ccc(S(=O)(=O)N(C)c4cccc(Cl)c4)cc32)c(C)c1C(=O)N1CCN(C)CC1	21.9
